# test description: Pharmacokinetic plasma parameters of J147, oral and intravascular administration
# Format: in vivo, Adult Wister Rats
# assay setup: Wistar, rat, plasma, iv, 5 mg/kg, IV 5 mg/kg; Mean of 4 animals; read-out: C0

{"mol smiles": "COc1cccc(/C=N/N(C(=O)C(F)(F)F)c2ccc(C)cc2C)c1", "C0 [ng/mL]": 2290}

* * *

# test description: Plasma levels of J147 after oral administration in Basis suspension
# Type: in vivo, Adult Wister Rats
# assay setup: Wistar, rat, plasma, po, 20 mg/kg, oral 20 mg/kg in Basis suspension; 4 h; mean of rats; read-out: Plasma Conc. Mean

{"mol smiles": "COc1cccc(/C=N/N(C(=O)C(F)(F)F)c2ccc(C)cc2C)c1", "unit text": "ng/mL", "concentration at 4 h": 8.8}
